meta.source: the MegaScale stability set (Tsuboyama et al. 2023)

B1: EHEE_rd2_1257 (parent)
chain: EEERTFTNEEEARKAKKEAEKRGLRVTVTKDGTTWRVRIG

Variants of: B1
Test Method Notes: folding stability dG (cDNA display proteolysis); higher = more stable
Recorded Conditions: PBS, room temperature
Measured folding stability dG of individual entries
Recorded Metric: folding stability dG (kcal/mol)

N8Y | 0.987
R38D | 1
R38M | 2.04
T27W | 1.96
K30R | 2.04
